All figures here come from paper PMC4381587.

# assayed_system: recombinant human PI3K isoform δ (Homo sapiens, UniProt O00329)
# Sequence (O00329 whole entry, canonical isoform): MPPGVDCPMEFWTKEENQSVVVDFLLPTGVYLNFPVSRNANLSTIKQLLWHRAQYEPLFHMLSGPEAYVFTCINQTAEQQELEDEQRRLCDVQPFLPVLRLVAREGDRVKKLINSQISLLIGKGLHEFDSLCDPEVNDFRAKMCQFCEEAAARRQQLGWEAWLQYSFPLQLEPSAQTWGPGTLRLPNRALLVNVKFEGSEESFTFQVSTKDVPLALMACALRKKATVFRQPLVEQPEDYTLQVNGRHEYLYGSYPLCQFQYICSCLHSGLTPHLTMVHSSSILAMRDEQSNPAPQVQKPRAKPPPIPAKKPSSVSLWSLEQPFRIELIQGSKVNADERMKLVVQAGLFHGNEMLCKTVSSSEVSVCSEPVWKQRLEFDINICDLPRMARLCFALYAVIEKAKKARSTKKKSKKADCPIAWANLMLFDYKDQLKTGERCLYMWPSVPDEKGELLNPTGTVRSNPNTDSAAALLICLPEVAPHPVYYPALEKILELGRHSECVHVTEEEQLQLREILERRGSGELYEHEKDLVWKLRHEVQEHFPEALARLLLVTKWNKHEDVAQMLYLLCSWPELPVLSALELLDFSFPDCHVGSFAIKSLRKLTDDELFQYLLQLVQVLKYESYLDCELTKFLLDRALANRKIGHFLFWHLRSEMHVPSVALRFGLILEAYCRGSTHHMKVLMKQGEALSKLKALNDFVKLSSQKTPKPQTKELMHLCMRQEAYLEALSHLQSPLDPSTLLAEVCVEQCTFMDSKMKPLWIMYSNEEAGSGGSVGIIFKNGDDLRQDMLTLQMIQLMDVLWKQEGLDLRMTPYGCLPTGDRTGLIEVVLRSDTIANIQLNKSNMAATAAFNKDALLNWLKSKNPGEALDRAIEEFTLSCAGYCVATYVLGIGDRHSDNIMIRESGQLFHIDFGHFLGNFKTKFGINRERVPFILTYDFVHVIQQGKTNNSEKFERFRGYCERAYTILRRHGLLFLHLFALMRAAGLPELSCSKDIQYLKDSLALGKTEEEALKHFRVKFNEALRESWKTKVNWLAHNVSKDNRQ
# Sequence (P27986 whole entry partner, canonical isoform): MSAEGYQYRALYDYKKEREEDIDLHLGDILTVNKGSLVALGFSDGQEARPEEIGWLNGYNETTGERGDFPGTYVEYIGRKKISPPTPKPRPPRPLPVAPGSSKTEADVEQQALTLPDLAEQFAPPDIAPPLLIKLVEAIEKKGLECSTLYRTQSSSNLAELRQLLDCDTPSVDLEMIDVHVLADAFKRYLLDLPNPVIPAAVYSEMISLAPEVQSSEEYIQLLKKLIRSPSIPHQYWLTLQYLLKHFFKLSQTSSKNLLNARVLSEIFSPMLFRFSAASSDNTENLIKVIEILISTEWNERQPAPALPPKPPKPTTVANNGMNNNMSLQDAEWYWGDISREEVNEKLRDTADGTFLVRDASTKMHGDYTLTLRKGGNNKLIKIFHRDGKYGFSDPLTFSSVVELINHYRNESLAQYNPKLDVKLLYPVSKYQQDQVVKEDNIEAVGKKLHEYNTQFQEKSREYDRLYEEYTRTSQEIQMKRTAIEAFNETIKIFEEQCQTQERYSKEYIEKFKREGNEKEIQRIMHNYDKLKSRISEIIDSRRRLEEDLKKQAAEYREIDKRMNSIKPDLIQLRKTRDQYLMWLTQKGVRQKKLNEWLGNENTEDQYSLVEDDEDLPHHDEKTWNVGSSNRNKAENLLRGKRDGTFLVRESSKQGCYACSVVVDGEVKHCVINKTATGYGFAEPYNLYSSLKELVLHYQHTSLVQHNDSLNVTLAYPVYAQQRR
# measurement_notes: Kinase activity in cell-free assay (HotSpot), PI3Kδ
# Format: biochemical
# study_conditions: read-out: IC50 against PI3K δ isoform
experimental_endpoint: IC50 (µM)
The answer is to be given in µM; state only the numeric part.

Which IC50 is listed for N#C/C(=C\C=C\c1ccc(-c2cc(Cl)ccc2Cl)o1)C(N)=S ?
3.65

* * *

# assayed_system: recombinant human PI3K isoform γ (Homo sapiens, UniProt P48736)
# Sequence (P48736 whole entry, canonical isoform): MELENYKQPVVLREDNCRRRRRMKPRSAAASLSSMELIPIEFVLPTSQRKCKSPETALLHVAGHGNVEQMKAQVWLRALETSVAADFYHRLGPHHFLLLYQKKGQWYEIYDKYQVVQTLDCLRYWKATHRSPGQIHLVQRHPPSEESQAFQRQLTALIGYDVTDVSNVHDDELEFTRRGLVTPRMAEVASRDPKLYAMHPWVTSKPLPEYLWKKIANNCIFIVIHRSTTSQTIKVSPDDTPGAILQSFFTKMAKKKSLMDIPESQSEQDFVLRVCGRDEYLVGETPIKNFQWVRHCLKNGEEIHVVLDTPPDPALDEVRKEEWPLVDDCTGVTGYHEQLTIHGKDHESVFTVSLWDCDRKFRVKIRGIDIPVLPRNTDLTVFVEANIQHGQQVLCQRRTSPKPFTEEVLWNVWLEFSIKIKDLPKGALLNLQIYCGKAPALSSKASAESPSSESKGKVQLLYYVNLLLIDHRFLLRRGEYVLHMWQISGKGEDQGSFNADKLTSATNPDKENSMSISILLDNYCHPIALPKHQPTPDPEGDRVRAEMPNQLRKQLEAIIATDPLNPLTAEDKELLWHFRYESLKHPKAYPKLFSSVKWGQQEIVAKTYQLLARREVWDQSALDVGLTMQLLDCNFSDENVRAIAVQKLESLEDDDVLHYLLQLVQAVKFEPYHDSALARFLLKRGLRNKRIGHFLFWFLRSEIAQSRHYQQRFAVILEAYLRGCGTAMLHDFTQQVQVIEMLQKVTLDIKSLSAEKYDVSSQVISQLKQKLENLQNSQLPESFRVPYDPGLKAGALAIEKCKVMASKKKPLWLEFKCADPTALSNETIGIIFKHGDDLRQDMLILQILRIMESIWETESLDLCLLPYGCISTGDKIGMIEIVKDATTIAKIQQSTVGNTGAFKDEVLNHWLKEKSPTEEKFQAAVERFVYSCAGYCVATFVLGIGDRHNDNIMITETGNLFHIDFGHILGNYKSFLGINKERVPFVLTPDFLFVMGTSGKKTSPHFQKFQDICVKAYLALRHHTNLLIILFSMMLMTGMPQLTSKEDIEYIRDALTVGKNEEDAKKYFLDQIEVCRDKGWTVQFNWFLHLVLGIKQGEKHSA
# measurement_notes: Kinase activity in cell-free assay (HotSpot), PI3Kγ
# study_conditions: read-out: IC50 against PI3K γ isoform
experimental_endpoint: pIC50
# pIC50: negative log10 of molar concentration; output just the value

Which pIC50 is listed for N#C/C(=C\C=C\c1ccc(-c2cc(Cl)ccc2Cl)o1)C(N)=S ?
6.13
